Values compiled from PubChem BioAssay AID1963450.

Quick reference: viability, T/C of the listed items.
Test system: 556581-035-R-J1-PDC complex spheroid growth
Experiment: Anticancer human tumor 556581-035-R-J1-PDC patient-derived ovarian carcinoma cell line growth inhibition [Asc]
Conditions: second compound 1 µM; first compound 10 µM; active compounds read low
Number only, in %; omit the unit.

INSERT INTO assay_data (compound, target, reported_result) VALUES
  ('C#Cc1c(F)ccc2cc(O)cc(-c3ncc4c(N5CC6CCC(C5)N6)nc(OCC56CCCN5CC(F)C6)nc4c3F)c12 (configuration not stated) + Cc1c(S(C)(=O)=O)c(-c2cc(F)cc(N3CCN(c4ccc(NS(=O)(=O)c5ccc(NC(CCN6CCC(C(=O)OCCCP(=O)(O)O)CC6)CSc6ccccc6)c(S(=O)(=O)C(F)(F)F)c5)cc4)CC3)c2)c(-c2ccc(Cl)cc2)n1C(C)C', '556581-035-R-J1-PDC complex spheroid growth', 46.9);

# evaluate next
**Q:** Output measured viability, T/C for this item: O=C(c1cc(Cc2n[nH]c(=O)c3ccccc23)ccc1F)N1CCN(C(=O)C2CC2)CC1 + Cc1c(S(C)(=O)=O)c(-c2cc(F)cc(N3CCN(c4ccc(NS(=O)(=O)c5ccc(NC(CCN6CCC(C(=O)OCCCP(=O)(O)O)CC6)CSc6ccccc6)c(S(=O)(=O)C(F)(F)F)c5)cc4)CC3)c2)c(-c2ccc(Cl)cc2)n1C(C)C
**A:** 66.4

###

System: 556581-035-R-J1-PDC complex spheroid growth
Experiment: Anticancer human tumor 556581-035-R-J1-PDC cell line growth inhibition [Asc];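 also: spheroids exposed to agents for 7 days before viability read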
Conditions: second compound 0.03 µM; first compound 0.0316 µM; active compounds read low
Excerpt: Multicellular complex tumor spheroid response to apoptosis pathway targeting inhibitors Alrizomadlin, Pelcitoclax, and Dasminapant in combination with a variety of drugs and investigational agents in selected tumor cell lines […] Compounds. […] If the clinical Cmax for an agent had not been determined, the highest concentration tested was 10 microM. […]
Quick reference: viability, T/C of the listed items.
Number only, in %; omit the unit.

Take a look at these entries with their results.
INSERT INTO measurements (compound, target, readout, reported_result) VALUES
  ('CNC(C)C(=O)NC1CN(S(=O)(=O)c2cccc(S(=O)(=O)N3CCC4CCC(C(=O)NC(c5ccccc5)c5ccccc5)N4C(=O)C(NC(=O)C(C)NC)C3)c2)CCC2CCC(C(=O)NC(c3ccccc3)c3ccccc3)N2C1=O (stereo not given) + CCN1C(C(=O)NC23CCC(C(=O)O)(CC2)CC3)C(c2cccc(Cl)c2F)C2(C(=O)Nc3cc(Cl)ccc32)C12CCCCC2', '556581-035-R-J1-PDC complex spheroid growth', 'viability, T/C', 97.9),
  ('Cn1ncnc1[C@H]1c2n[nH]c(=O)c3cc(F)cc(c23)N[C@@H]1c1ccc(F)cc1 + CCN1C(C(=O)NC23CCC(C(=O)O)(CC2)CC3)C(c2cccc(Cl)c2F)C2(C(=O)Nc3cc(Cl)ccc32)C12CCCCC2', '556581-035-R-J1-PDC complex spheroid growth', 'viability, T/C', 94.3),
  ('CCN1CCN(Cc2ccc(Nc3ncc(F)c(-c4cc(F)c5nc(C)n(C(C)C)c5c4)n3)nc2)CC1 + CCN1C(C(=O)NC23CCC(C(=O)O)(CC2)CC3)C(c2cccc(Cl)c2F)C2(C(=O)Nc3cc(Cl)ccc32)C12CCCCC2', '556581-035-R-J1-PDC complex spheroid growth', 'viability, T/C', 94),
  ('NC1CCC(NC2CC2c2ccccc2)CC1 (stereo not given) + CCN1C(C(=O)NC23CCC(C(=O)O)(CC2)CC3)C(c2cccc(Cl)c2F)C2(C(=O)Nc3cc(Cl)ccc32)C12CCCCC2', '556581-035-R-J1-PDC complex spheroid growth', 'viability, T/C', 97.7),
  ('C=CC(=O)N1CCN(c2nc(=O)n(-c3c(C)ccnc3C(C)C)c3nc(-c4c(O)cccc4F)c(F)cc23)C(C)C1 (stereo not given) + CCN1C(C(=O)NC23CCC(C(=O)O)(CC2)CC3)C(c2cccc(Cl)c2F)C2(C(=O)Nc3cc(Cl)ccc32)C12CCCCC2', '556581-035-R-J1-PDC complex spheroid growth', 'viability, T/C', 96.1);

**Q:** Output measured viability, T/C for this item: COc1c(OCCCN2CCOCC2)ccc2c3n(c(=NC(=O)c4cnc(N)nc4)nc12)CCN3 + CCN1C(C(=O)NC23CCC(C(=O)O)(CC2)CC3)C(c2cccc(Cl)c2F)C2(C(=O)Nc3cc(Cl)ccc32)C12CCCCC2
**A:** 59.2

**Q:** Output measured viability, T/C for this item: C#Cc1c(F)ccc2cc(O)cc(-c3ncc4c(N5CC6CCC(C5)N6)nc(OCC56CCCN5CC(F)C6)nc4c3F)c12 (stereo not given) + CCN1C(C(=O)NC23CCC(C(=O)O)(CC2)CC3)C(c2cccc(Cl)c2F)C2(C(=O)Nc3cc(Cl)ccc32)C12CCCCC2
**A:** 98.9

**Q:** Output measured viability, T/C for this item: O=C(c1cc(Cc2n[nH]c(=O)c3ccccc23)ccc1F)N1CCN(C(=O)C2CC2)CC1 + CCN1C(C(=O)NC23CCC(C(=O)O)(CC2)CC3)C(c2cccc(Cl)c2F)C2(C(=O)Nc3cc(Cl)ccc32)C12CCCCC2
**A:** 105

**Q:** Output measured viability, T/C for this item: O=C(c1ccc(F)c(F)c1Nc1ccc(I)cc1F)N1CC(O)([C@@H]2CCCCN2)C1 + CCN1C(C(=O)NC23CCC(C(=O)O)(CC2)CC3)C(c2cccc(Cl)c2F)C2(C(=O)Nc3cc(Cl)ccc32)C12CCCCC2
**A:** 97.7

**Q:** Output measured viability, T/C for this item: C=C(F)C(=O)N1CCN(c2nc(OCC3CCCN3C)nc3c2CCN(c2cccc4cccc(Cl)c24)C3)CC1CC#N (stereo not given) + CCN1C(C(=O)NC23CCC(C(=O)O)(CC2)CC3)C(c2cccc(Cl)c2F)C2(C(=O)Nc3cc(Cl)ccc32)C12CCCCC2
**A:** 92.1

###

Quick reference: viability, T/C of the listed items.
Test system: 556581-035-R-J1-PDC complex spheroid growth
Experiment: Anticancer human tumor 556581-035-R-J1-PDC cell line growth inhibition [Asc];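 also: spheroids exposed to agents for 7 days before viability read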
Settings: second compound 0.1 µM; first compound 0.0949 µM; active compounds read low
Number only, in %; omit the unit.

Take a look at these entries with their results.
INSERT INTO results (compound, reported_result) VALUES
  ('NC(=O)C(=Cn1cnc(-c2cc(C(F)(F)F)cc(C(F)(F)F)c2)n1)c1cncnc1 + Cc1c(S(C)(=O)=O)c(-c2cc(F)cc(N3CCN(c4ccc(NS(=O)(=O)c5ccc(NC(CCN6CCC(C(=O)OCCCP(=O)(O)O)CC6)CSc6ccccc6)c(S(=O)(=O)C(F)(F)F)c5)cc4)CC3)c2)c(-c2ccc(Cl)cc2)n1C(C)C', 75.9),
  ('CCN1C(C(=O)NC23CCC(C(=O)O)(CC2)CC3)C(c2cccc(Cl)c2F)C2(C(=O)Nc3cc(Cl)ccc32)C12CCCCC2 (stereo unspecified) + Cc1c(S(C)(=O)=O)c(-c2cc(F)cc(N3CCN(c4ccc(NS(=O)(=O)c5ccc(NC(CCN6CCC(C(=O)OCCCP(=O)(O)O)CC6)CSc6ccccc6)c(S(=O)(=O)C(F)(F)F)c5)cc4)CC3)c2)c(-c2ccc(Cl)cc2)n1C(C)C', 89.2);

**Q:** Output measured viability, T/C for this item: CCN1C(C(=O)NC23CCC(C(=O)O)(CC2)CC3)C(c2cccc(Cl)c2F)C2(C(=O)Nc3cc(Cl)ccc32)C12CCCCC2 (stereo unspecified) + CNC(C)C(=O)NC1CN(S(=O)(=O)c2cccc(S(=O)(=O)N3CCC4CCC(C(=O)NC(c5ccccc5)c5ccccc5)N4C(=O)C(NC(=O)C(C)NC)C3)c2)CCC2CCC(C(=O)NC(c3ccccc3)c3ccccc3)N2C1=O
**A:** 84.3

**Q:** Output measured viability, T/C for this item: NC(=O)C(=Cn1cnc(-c2cc(C(F)(F)F)cc(C(F)(F)F)c2)n1)c1cncnc1 + CNC(C)C(=O)NC1CN(S(=O)(=O)c2cccc(S(=O)(=O)N3CCC4CCC(C(=O)NC(c5ccccc5)c5ccccc5)N4C(=O)C(NC(=O)C(C)NC)C3)c2)CCC2CCC(C(=O)NC(c3ccccc3)c3ccccc3)N2C1=O
**A:** 64.1

**Q:** Output measured viability, T/C for this item: Cc1nc(N2CCC3(CC2)COC(C)C3N)c(CO)nc1Sc1ccnc(N)c1Cl (stereo unspecified) + CNC(C)C(=O)NC1CN(S(=O)(=O)c2cccc(S(=O)(=O)N3CCC4CCC(C(=O)NC(c5ccccc5)c5ccccc5)N4C(=O)C(NC(=O)C(C)NC)C3)c2)CCC2CCC(C(=O)NC(c3ccccc3)c3ccccc3)N2C1=O
**A:** 71.8

**Q:** Output measured viability, T/C for this item: Cc1nc(N2CCC3(CC2)COC(C)C3N)c(CO)nc1Sc1ccnc(N)c1Cl (stereo unspecified) + Cc1c(S(C)(=O)=O)c(-c2cc(F)cc(N3CCN(c4ccc(NS(=O)(=O)c5ccc(NC(CCN6CCC(C(=O)OCCCP(=O)(O)O)CC6)CSc6ccccc6)c(S(=O)(=O)C(F)(F)F)c5)cc4)CC3)c2)c(-c2ccc(Cl)cc2)n1C(C)C
**A:** 62.4
